# assay-system: IKZF1 (Homo sapiens, UniProt Q13422+Q96SW2)
# Construct: expressed in transfected cells
# Sequence (Q13422 whole entry): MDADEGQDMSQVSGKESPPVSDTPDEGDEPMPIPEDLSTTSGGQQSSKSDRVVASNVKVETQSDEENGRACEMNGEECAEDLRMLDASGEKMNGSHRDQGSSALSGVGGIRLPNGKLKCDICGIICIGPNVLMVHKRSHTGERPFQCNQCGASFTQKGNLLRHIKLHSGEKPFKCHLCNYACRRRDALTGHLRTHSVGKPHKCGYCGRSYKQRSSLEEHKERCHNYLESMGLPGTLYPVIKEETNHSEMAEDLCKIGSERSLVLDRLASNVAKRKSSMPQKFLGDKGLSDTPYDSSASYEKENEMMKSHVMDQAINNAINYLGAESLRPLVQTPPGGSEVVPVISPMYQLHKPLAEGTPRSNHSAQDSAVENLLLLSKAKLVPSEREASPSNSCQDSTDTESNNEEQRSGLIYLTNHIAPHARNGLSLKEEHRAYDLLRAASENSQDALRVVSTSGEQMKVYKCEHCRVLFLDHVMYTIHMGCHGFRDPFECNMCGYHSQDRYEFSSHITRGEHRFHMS
# Sequence (Q96SW2 whole entry): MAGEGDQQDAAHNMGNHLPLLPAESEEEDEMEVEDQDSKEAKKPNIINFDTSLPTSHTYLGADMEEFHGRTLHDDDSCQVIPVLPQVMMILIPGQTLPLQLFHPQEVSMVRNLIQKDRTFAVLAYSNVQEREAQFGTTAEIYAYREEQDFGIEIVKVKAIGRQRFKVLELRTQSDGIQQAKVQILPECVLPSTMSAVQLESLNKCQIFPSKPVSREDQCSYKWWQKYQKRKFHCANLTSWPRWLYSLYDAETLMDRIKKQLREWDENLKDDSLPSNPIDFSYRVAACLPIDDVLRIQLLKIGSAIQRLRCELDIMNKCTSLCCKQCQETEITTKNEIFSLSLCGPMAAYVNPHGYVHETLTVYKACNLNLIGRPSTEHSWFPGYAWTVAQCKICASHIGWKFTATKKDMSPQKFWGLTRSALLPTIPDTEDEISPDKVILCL
# Sequence (Q16531 whole entry partner): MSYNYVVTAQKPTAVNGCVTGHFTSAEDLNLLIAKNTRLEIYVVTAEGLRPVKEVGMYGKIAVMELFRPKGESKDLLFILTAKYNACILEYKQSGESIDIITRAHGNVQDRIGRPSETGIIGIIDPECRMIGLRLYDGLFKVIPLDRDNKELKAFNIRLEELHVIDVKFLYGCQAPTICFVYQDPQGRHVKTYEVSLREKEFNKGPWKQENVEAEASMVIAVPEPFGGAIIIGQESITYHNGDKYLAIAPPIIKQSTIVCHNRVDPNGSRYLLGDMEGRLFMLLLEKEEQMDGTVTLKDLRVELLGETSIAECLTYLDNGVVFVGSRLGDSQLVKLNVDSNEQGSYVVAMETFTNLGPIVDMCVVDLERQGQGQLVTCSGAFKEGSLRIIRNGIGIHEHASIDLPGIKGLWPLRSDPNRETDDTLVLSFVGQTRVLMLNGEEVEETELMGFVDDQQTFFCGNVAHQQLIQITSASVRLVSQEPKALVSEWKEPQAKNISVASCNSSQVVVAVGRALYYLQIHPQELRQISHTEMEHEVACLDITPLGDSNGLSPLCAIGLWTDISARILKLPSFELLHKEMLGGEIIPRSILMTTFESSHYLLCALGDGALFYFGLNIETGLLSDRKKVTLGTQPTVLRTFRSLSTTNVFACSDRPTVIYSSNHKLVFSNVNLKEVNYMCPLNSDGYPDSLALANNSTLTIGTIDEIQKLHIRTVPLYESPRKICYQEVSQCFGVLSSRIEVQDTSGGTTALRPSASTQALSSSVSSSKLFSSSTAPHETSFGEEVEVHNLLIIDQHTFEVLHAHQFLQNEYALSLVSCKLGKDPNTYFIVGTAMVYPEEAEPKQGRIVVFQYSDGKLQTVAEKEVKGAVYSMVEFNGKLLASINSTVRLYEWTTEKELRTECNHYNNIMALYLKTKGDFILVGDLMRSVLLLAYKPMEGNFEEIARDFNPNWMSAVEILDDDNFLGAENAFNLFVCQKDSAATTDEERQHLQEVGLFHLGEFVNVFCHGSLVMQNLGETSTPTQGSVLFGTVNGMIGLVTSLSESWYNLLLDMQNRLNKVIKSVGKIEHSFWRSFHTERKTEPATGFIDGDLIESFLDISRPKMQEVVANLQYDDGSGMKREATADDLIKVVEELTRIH
# run-description: HiBiT protein tagging assay, in vitro IKZF1 degradation (HEK293)
# Format: cell-based
# experimental-conditions: HEK293, 18-24 hr incubation, normalized to DMSO control, read-out: IKZF1 Dmax (maximum degradation at the highest concentration tested)
parameter: Dmax (%)

Some solved cases for reference:
molecule	assay-system	assay-value
C[C@H]1CC[C@@H](NCc2ccc3c(c2)CN(C2CCC(=O)NC2=O)C3=O)CC1 (stereo partly drawn) [Example 89]	IKZF1 (Homo sapiens, UniProt Q13422+Q96SW2)	42
CC1(NCc2ccc3c(c2)CN(C2CCC(=O)NC2=O)C3=O)CCCC1 (stereo not drawn) [Example 151]	IKZF1 (Homo sapiens, UniProt Q13422+Q96SW2)	26
O=C1CCC(N2Cc3cc(CNC4CCN(C(=O)NCc5ccccc5)CC4)ccc3C2=O)C(=O)N1 (stereo not drawn) [Example 4]	IKZF1 (Homo sapiens, UniProt Q13422+Q96SW2)	95
O=C1CCC(N2Cc3cc(CNC4CCC5(CC4)CC5)ccc3C2=O)C(=O)N1 (stereo not drawn) [Example 58]	IKZF1 (Homo sapiens, UniProt Q13422+Q96SW2)	66

(I) O=C1CCC(N2Cc3cc(CNCC4CCCc5ccccc54)ccc3C2=O)C(=O)N1 (stereo not drawn) [Example 22]
(II) O=C1CCC(N2Cc3cc(CN[C@H]4C[C@@H](O)C4)ccc3C2=O)C(=O)N1 (stereo partly drawn) [Example 54]
Exercise: Which item exceeds the other in Dmax, I or II ? Identify your pick by its label.
Solution: I

====

# assay-system: IKZF2 (Homo sapiens, UniProt Q96SW2+Q9UKS7)
# Construct: expressed in transfected cells
# Sequence (Q9UKS7 1-500 isoform Q9UKS7-2): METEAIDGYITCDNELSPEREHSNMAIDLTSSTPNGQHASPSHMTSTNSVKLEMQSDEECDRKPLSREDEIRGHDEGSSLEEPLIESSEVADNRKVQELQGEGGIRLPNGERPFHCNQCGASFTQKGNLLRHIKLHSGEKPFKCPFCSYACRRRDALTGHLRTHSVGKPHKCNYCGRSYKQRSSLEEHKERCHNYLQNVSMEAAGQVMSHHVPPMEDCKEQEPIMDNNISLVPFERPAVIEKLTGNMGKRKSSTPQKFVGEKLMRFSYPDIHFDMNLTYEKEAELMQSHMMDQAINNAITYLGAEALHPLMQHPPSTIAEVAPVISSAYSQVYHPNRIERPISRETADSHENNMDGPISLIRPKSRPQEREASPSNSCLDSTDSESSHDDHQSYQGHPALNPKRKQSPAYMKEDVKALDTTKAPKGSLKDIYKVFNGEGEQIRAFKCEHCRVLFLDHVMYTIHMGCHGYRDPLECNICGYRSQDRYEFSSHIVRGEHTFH
# Sequence (Q96SW2 whole entry): as the sequence (Q96SW2 whole entry) above
# Sequence (Q16531 whole entry partner): as the sequence (Q16531 whole entry partner) above
# run-description: HiBiT protein tagging assay, in vitro IKZF2 degradation (HEK293)
# Format: cell-based
# experimental-conditions: HEK293, HiBiT assay, HEK293, 18-24 hr incubation, normalized to DMSO control; read-out: IKZF2 Dmax (maximum degradation at the highest concentration tested)
parameter: Dmax (%)

Some solved cases for reference:
compound	Dmax [%]
O=C1CCC(N2Cc3cc(CNC4CCC5(CCc6ccccc65)CC4)ccc3C2=O)C(=O)N1 (centres unmarked) [Example 114]	78
O=C1CCC(N2Cc3cc(CN[C@H]4CCC[C@@H](OCc5ccccc5)C4)ccc3C2=O)C(=O)N1 (some centres unmarked) [Example 111]	56
O=C1CCC(N2Cc3cc(CN[C@H]4CCOc5ccccc54)ccc3C2=O)C(=O)N1 (some centres unmarked) [Example 17]	48
CO[C@H]1CC[C@@H](NCc2ccc3c(c2)CN(C2CCC(=O)NC2=O)C3=O)CC1 (some centres unmarked) [Example 86]	83

(1) CCCO[C@H]1CC[C@H](NCc2ccc3c(c2)CN(C2CCC(=O)NC2=O)C3=O)CC1 (some centres unmarked) [Example 75]
(2) O=C1CCC(N2Cc3cc(CNC45CC(C4)C5)ccc3C2=O)C(=O)N1 (centres unmarked) [Example 15]
(3) O=C1CCC(N2Cc3cc(CN[C@H]4CCC[C@@H]4NCc4ccccc4)ccc3C2=O)C(=O)N1 (some centres unmarked) [Example 157]
(4) O=C1CCC(N2Cc3cc(CNCCCO)ccc3C2=O)C(=O)N1 (centres unmarked) [Example 55]
Exercise: Rank by Dmax (largest to smallest). Returns: the labels arranged in the requested order.
Solution: 1, 3, 2, 4
(1: 90%, 3: 43%, 2: 29%, 4: 20%)

====

# assay-system: IKZF1 (Homo sapiens, UniProt Q13422+Q96SW2)
# Construct: expressed in transfected cells
# run-description: HiBiT protein tagging assay, in vitro IKZF1 degradation (HEK293)
# Format: cell-based
# experimental-conditions: HEK293, 18-24 hr incubation, normalized to DMSO control, read-out: IKZF1 EC50
parameter: DC50 (µM)

(A) O=C1CCC(N2Cc3cc(CNC45CCC(CC4)C5)ccc3C2=O)C(=O)N1 (stereo not drawn)
(B) O=C1CCC(N2Cc3cc(CN[C@H]4CCCN(Cc5ccccc5)C4)ccc3C2=O)C(=O)N1 (stereo partly drawn)
(C) O=C1CCC(N2Cc3cc(CNC4CCC5(CC4)COC5)ccc3C2=O)C(=O)N1 (stereo not drawn)
(D) O=C1CCC(N2Cc3cc(CNC4CCC5(CCCCC5)CC4)ccc3C2=O)C(=O)N1 (stereo not drawn)
Exercise: Please produce an ascending ranking of these molecules based on DC50. Returns: the labels arranged in the requested order.
Solution: B, D, A, C

====

# assay-system: IKZF1 (Homo sapiens, UniProt Q13422+Q96SW2)
# Construct: expressed in transfected cells
# run-description: HiBiT protein tagging assay, in vitro IKZF1 degradation (HEK293)
# Format: cell-based
# experimental-conditions: HEK293, 18-24 hr incubation, normalized to DMSO control, read-out: IKZF1 Dmax (maximum degradation at the highest concentration tested)
parameter: Dmax (%)

molecule	Dmax, %
O=C1CCC(N2Cc3cc(CN[C@H]4CC[C@@H](c5ccccc5)CC4)ccc3C2=O)C(=O)N1 (some centres unmarked)	97
O=C1CCC(N2Cc3cc(CN[C@@H]4CCCN(Cc5cccnc5)C4)ccc3C2=O)C(=O)N1 (some centres unmarked)	96
O=C1CCC(N2Cc3cc(CNC4CC5CC(C5)C4)ccc3C2=O)C(=O)N1 (centres unmarked)	53
O=C1CCC(N2Cc3cc(CN[C@@H]4CCCC[C@@H]4Cc4ccccc4)ccc3C2=O)C(=O)N1 (some centres unmarked)	68
CC1(c2ccccc2)CCC(NCc2ccc3c(c2)CN(C2CCC(=O)NC2=O)C3=O)CC1 (centres unmarked)	97

(I) O=C1CCC(N2Cc3cc(CN[C@@H]4CCCN(Cc5ccccc5)C4)ccc3C2=O)C(=O)N1 (some centres unmarked)
(II) O=C1CCC(N2Cc3cc(CNC4CCC5(CCCCC5)CC4)ccc3C2=O)C(=O)N1 (centres unmarked)
(III) O=C1CCC(N2Cc3cc(CNC4CC5CNC4C5)ccc3C2=O)C(=O)N1 (centres unmarked)
Exercise: Order the records, beginning with the lowest Dmax and ending with the highest. Returns: the labels arranged in the requested order.
Solution: III, II, I

====

Recorded measurements of DC50, one per entry
# assay-system: IKZF1 (Homo sapiens, UniProt Q13422+Q96SW2)
# Construct: expressed in transfected cells
# run-description: HiBiT protein tagging assay, in vitro IKZF1 degradation (HEK293)
# Type: cell-based
# experimental-conditions: HEK293, 18-24 hr incubation, normalized to DMSO control, read-out: IKZF1 EC50

molecule	DC50
O=C1CCC(N2Cc3cc(CNC4(CCc5ccccc5)CCCCC4)ccc3C2=O)C(=O)N1 (stereo not drawn)	> 1 µM
O=C1CCC(N2Cc3cc(CN[C@@H]4CC5CCC4CC5)ccc3C2=O)C(=O)N1 (stereo partly drawn)	> 10 µM
O=C1CCC(N2Cc3cc(CN[C@H](CO)c4ccccc4)ccc3C2=O)C(=O)N1 (stereo partly drawn)	> 10 µM
O=C1CCC(N2Cc3cc(CN[C@H]4CCCC[C@@H]4O)ccc3C2=O)C(=O)N1 (stereo partly drawn)	> 10 µM
COCC1(NCc2ccc3c(c2)CN(C2CCC(=O)NC2=O)C3=O)CCCCC1 (stereo not drawn)	> 1 µM

# context switch: different molecule, same DC50
Exercise: Please look at this molecule and report its DC50: CC[C@@H]1CCCC[C@H]1NCc1ccc2c(c1)CN(C1CCC(=O)NC1=O)C2=O (stereo partly drawn)
Solution: > 1 µM

====

# assay-system: IKZF2 (Homo sapiens, UniProt Q96SW2+Q9UKS7)
# Construct: expressed in transfected cells
# run-description: HiBiT protein tagging assay, in vitro IKZF2 degradation (HEK293)
# Type: cell-based
# experimental-conditions: HEK293, HiBiT assay, HEK293, 18-24 hr incubation, normalized to DMSO control; read-out: IKZF2 Dmax (maximum degradation at the highest concentration tested)
parameter: Dmax (%)

compound	assay-system	readout-unit	Dmax
O=C1CCC(N2Cc3cc(CNC4CCC(Cc5ccccc5)CC4)ccc3C2=O)C(=O)N1 (stereo not shown) [Example 10]	IKZF2 (Homo sapiens, UniProt Q96SW2+Q9UKS7)	%	80
O=C1CCC(N2Cc3cc(CNC4CCOCC4)ccc3C2=O)C(=O)N1 (stereo not shown) [Example 6]	IKZF2 (Homo sapiens, UniProt Q96SW2+Q9UKS7)	%	78
O=C1CCC(N2Cc3cc(CNC4CCCCC4)ccc3C2=O)C(=O)N1 (stereo not shown) [Example 5]	IKZF2 (Homo sapiens, UniProt Q96SW2+Q9UKS7)	%	78
O=C1CCC(N2Cc3cc(CNC4CC5CC(C5)C4)ccc3C2=O)C(=O)N1 (stereo not shown) [Example 74]	IKZF2 (Homo sapiens, UniProt Q96SW2+Q9UKS7)	%	82

====

# assay-system: IKZF2 (Homo sapiens, UniProt Q96SW2+Q9UKS7)
# Construct: expressed in transfected cells
# run-description: HiBiT protein tagging assay, in vitro IKZF2 degradation (HEK293)
# Assay type: cell-based
# experimental-conditions: HiBiT assay, HEK293, 18-24 hr incubation, normalized to DMSO control; read-out: IKZF2 EC50
parameter: DC50 (nM)

molecule	DC50 (nM)
O=C1CCC(N2Cc3cc(CNC4CCN(C(=O)c5ccccc5)CC4)ccc3C2=O)C(=O)N1 (stereo not drawn) [Example 57]	1300
O=C1CCC(N2Cc3cc(CNC4CCC5(CCOCC5)CC4)ccc3C2=O)C(=O)N1 (stereo not drawn) [Example 88]	296
O=C1CCC(N2Cc3cc(CN[C@H]4CC[C@@H](c5ccccc5)CC4)ccc3C2=O)C(=O)N1 (stereo partly drawn) [Example 31]	40
C[C@H]1CC[C@@H](NCc2ccc3c(c2)CN(C2CCC(=O)NC2=O)C3=O)CC1 (stereo partly drawn) [Example 89]	139
O=C1CCC(N2Cc3cc(CN[C@H]4CC[C@](O)(c5ccccc5)CC4)ccc3C2=O)C(=O)N1 (stereo partly drawn) [Example 65]	67
O=C1CCC(N2Cc3cc(CN[C@@H]4CCCC[C@H]4OCc4ccccc4)ccc3C2=O)C(=O)N1 (stereo partly drawn) [Example 126]	79
CO[C@H]1CC[C@@H](NCc2ccc3c(c2)CN(C2CCC(=O)NC2=O)C3=O)CC1 (stereo partly drawn) [Example 86]	123
O=C1CCC(N2Cc3cc(CNC4CCN(c5ccccn5)CC4)ccc3C2=O)C(=O)N1 (stereo not drawn) [Example 35]	111

(1) O=C1CCC(N2Cc3cc(CNC4CC5CC(C5)C4)ccc3C2=O)C(=O)N1 (stereo not drawn) [Example 74]
(2) O=C1CCC(N2Cc3cc(CN[C@H]4CCC[C@@H](Oc5ccccc5)C4)ccc3C2=O)C(=O)N1 (stereo partly drawn) [Example 110]
(3) O=C1CCC(N2Cc3cc(CN[C@H]4CCCN(Cc5ccccc5)C4)ccc3C2=O)C(=O)N1 (stereo partly drawn) [Example 21]
(4) O=C1CCC(N2Cc3cc(CN[C@H]4CCCC[C@@H]4O)ccc3C2=O)C(=O)N1 (stereo partly drawn) [Example 38]
Exercise: Rank by DC50 (largest to smallest). Returns: the labels arranged in the requested order.
Solution: 4, 3, 2, 1
(4: 3300 nM, 3: 261 nM, 2: 118 nM, 1: 48 nM)

The values you see were collected from patent US20240124412A1.
